# Measured Target: T1, CRBN, Q96SW2;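 further: pooled lentiviral library of zinc finger degron-EGFP fusions in mCherry-positive Jurkat cells, FACS-sorted after compound exposure, with degron abundance counted by next-generation sequencing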
# T1 chain: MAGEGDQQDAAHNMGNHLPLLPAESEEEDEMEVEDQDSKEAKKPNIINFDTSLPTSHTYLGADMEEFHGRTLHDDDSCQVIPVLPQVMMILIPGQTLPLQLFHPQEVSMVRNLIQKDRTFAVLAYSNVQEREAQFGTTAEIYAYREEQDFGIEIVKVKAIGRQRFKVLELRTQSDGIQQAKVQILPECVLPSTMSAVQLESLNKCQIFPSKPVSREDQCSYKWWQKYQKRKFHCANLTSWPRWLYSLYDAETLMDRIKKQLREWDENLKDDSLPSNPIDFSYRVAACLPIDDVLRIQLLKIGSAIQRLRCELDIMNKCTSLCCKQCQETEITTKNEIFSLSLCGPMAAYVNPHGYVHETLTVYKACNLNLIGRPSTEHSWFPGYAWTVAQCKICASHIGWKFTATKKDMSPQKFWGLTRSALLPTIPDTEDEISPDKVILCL
# Experimental Details: log2 fold change of degron read counts, EGFP-low vs EGFP+ sorted cells (limma voom), compound-induced degradation; higher = more compound-induced degradation of the degron-EGFP fusion; degrons are variants of IKZF1/3 zinc finger 2; compound dose not given here
# Assay Setup: Jurkat; 18 h; compound: compound 19 (5-tert-butyl-thalidomide)
The full ranking holds about 8,300 sequences; the median of “log2 fold change of degron read counts, EGFP-low vs EGFP+ sorted cells (limma voom), compound-induced degradation” is about -1.1, and the highest 2% start at about 3.2. Shown is part of a subset that was picked to be rich in the highest values.
Reported log2 fold change of degron read counts by item:
Answer using only a numeral; do not append any unit.

Worked set:
In [3]: df
Out[3]:
                             sequence_chain  measured_number
0  FYCDVCGATFTQKGNLLRHIKL [46F_47Y_49D_50V_52G_53A_54T_55F_67L_, Q9UKT9]             2.06
1  FKCPICGHAFTQKGNLLRHIKL [46F_47K_49P_50I_52G_53H_54A_55F_67L_, Q9UKT9]            -2.73
2  FFCEICGAIFTQKGNLLRHIKL [46F_47F_49E_50I_52G_53A_54I_55F_67L_, Q9UKT9]              3.4
3  FVCEICGAQFTQKGNLLRHIKL [46F_47V_49E_50I_52G_53A_54Q_55F_67L_, Q9UKT9]            0.913
4  FDCEICGAIFTQKGNLLRHIKL [46F_47D_49E_50I_52G_53A_54I_55F_67L_, Q9UKT9]           -0.448

Input: Entry under review: FICEICGAIFTQKGNLLRHIKL [46F_47I_49E_50I_52G_53A_54I_55F_67L_, Q9UKT9] . Reported log2 fold change of degron read counts?
Output: -0.706

Input: Entry under review: FGCEICGAIFTQKGNLLRHIKL [46F_47G_49E_50I_52G_53A_54I_55F_67L_, Q9UKT9] . Reported log2 fold change of degron read counts?
Output: 2.93

Input: Entry under review: FACEICGAQFTQKGNLLRHIKL [46F_47A_49E_50I_52G_53A_54Q_55F_67L_, Q9UKT9] . Reported log2 fold change of degron read counts?
Output: 3.66

Input: Entry under review: FYCEICGAIFTQKGNLLRHIKL [46F_47Y_49E_50I_52G_53A_54I_55F_67L_, Q9UKT9] . Reported log2 fold change of degron read counts?
Output: 3.43

Input: Entry under review: FFCNICGAEFTQKGNLLRHIKL [46F_47F_49N_50I_52G_53A_54E_55F_67L_, Q9UKT9] . Reported log2 fold change of degron read counts?
Output: 1.77

Value source: the supplement of paper PMC12645437
